Data provenance: the nanobody polyreactivity screen of Harvey et al. (2022)

test: yeast display, Sf9 membrane polyspecificity reagent, FACS + sequencing; frameworks hold sequencing errors
measured attribute: polyreactivity (PSR sort gate)

1) QVQLVESGGGLVQAGGSLRLSCAASGYTLRIYAMGWYRQAPGKEREMVAAISRSGGRTFYADSVKGRFTISRDNAKNTVYLQMNSLKPEDTAVYYCAADPRSYDTGRMDYWGQGTQVTVSS ... high polyreactivity
2) QVQLVESGGGLVQAGGSLRLSCAASGRIFFSYAMGWYRQAPGKERELVAAITSGGSTNYADSVKGRFTISRDNAKNTVYLQMNSLKPEDTAVYYCNKARSSGYNFGYWGQGTQVTVSS ... low polyreactivity
3) QVQLVESGGGLVQAGGSLRLSFAASGSTFNVHAMGGYRQAPGKERELVAAITSSGGSTNYADSVKGRFTISRDTAKNSVYLQLNSLKPEDTAVYYCAADAIYFSRLNLGYDYWGQGTQVTVSS ... low polyreactivity
4) QVQLVESGGGLVQAGGSLRLSCAASGRIFDNNAMGWYIQAPGKERELVAAIDWPGGSTDYADSVKGRFTISRDNAKNTVYLQMNSLIPEDTAVYYCVAGNVPYWHGNSYDYWGQGTQVTVSS ... low polyreactivity
5) QVQLVESGGGLVQAGGSLRLRCAASGFTFGRYAMGGYRQAPGKERELVAGITSGGSTYYADSVKGRFTISLDNAKNTVYLQMNSLKPEDTAVYYCITKVISRTSERRGNGFTRYDYWGQGTQVTVSS ... low polyreactivity
6) QVQLVESGGGLVQAGGSLRLSCAASGRTLARTALGWYRQAPGKERELVAAISRRAVRTYYADSVKGRFTISRDNAKNTVYLQMNILKPEDTAVYYCYAASSLPGYDYWGQGTQVTVSS ... high polyreactivity
7) QVQLVESGGGLVQAGGSLRLSCAASGSTFRRYTMGWYRQAPGKERELVAAITWSGGSTYYADSVKGRFTISRDNAKNTVYLQMNSLKPEDTAVYYCAADRPYHTREYYYWGQGTQVNVSS ... low polyreactivity
8) QVQLVESGGGLVQAGCTLRLSSAASGRIYRYNVMGWSRQAPGKESELVAGISSGGSTNYADSVKGRFTISRDNAKNTVYLQMTSLKPEDTAVYFCSKRWLNAKPYGQAMYSWGQGTQVTVSS ... high polyreactivity
9) QVQLVESGGGLVQAAGSLRLSCAASGRIFRRYAMGWYRQAPGKERELVAAITNNGANTYYADSVKGRFTISRDNAKNTVYLQMNSLKPEDTAVYDCARKSYPGRPAYRYDYWGQGTQVTVSS ... high polyreactivity
10) QVQLVESGGGLVQAGGSLRLSCAASGITFSYYAMGWYRQAPGKERELVAAINSGGGSTYYADSVKGRFTISRDNAKNTVYLQMNSLKPEDTAVYYCAARYRSRYDYYYDRDYWGQGTQVTVSS ... low polyreactivity
11) QVQLVESGGGLVQAGGSLRVSCAASGSTFDVNAMGWYRQAPGKERELVAVITSGGSTNYADSVKGRFTISRDNAKNSVYLQMNSLKPEATAVYYCAKDSRTLYDYWGQGTQVTVSS ... low polyreactivity

----------
experiment: yeast display, Sf9 membrane polyspecificity reagent, FACS + sequencing; frameworks hold sequencing errors
measured attribute: polyreactivity (PSR sort gate)

1. QVQLVESGGGLVQAGGSLRLSCAASGFTFYRYTMGWYRQAPGKERELVASITRRGGSTYYADSVKGRFTISRDNAKNTVYLQMNSLKPEDTAVYYCNAATPVWQSGTYEYWGQGTQVTVSS ... high polyreactivity
2. QVQLVESGGVLVQAGGSLRLSCAASGSIFAGNAMGWYRQEPGKERELVAAISRSGTRTYYADSVKGRFTISRDNAMNTVYLQMNSLKPEDTAVYYFAAYLPYRQGRYGYEYWGQGTQVTVSS ... high polyreactivity

----------
test: yeast display, Sf9 membrane polyspecificity reagent, FACS + sequencing; frameworks hold sequencing errors
measured attribute: polyreactivity (PSR sort gate)

1. QVQLVESGGVLVQAGGSLRLSCAASGSIFNINAMGWYRQAPGKERELVAAMTSGDGTDYADSVKGRFTISRDNAKNTVYLQMNSLKPEDTAVYYCAAEYYWLVPERFDYWGQGTQVTVSS ... low polyreactivity
2. QVQLVESGGGLVQAGGSLRLSCAASGFIYVYNAMGWYRKAPGKEREFVAGISRSGGNTYYADSVKGRFTISRDNAKNTVYLQMNSLKPEDTAVYYCAVVNRRFGFPNVALRSNYGDYWGQGTQVTVSS ... low polyreactivity
3. QVQLVESGGGLVQAGGSLRLSCAASGSTFDTYAKGWYRQAPGQERELVAAISYRGGNTYYADSVKGRFTISRDNAKNTVYLQMNSLKPEDTAVYYCNAGVSIGRSRRYDYWGQGTHVTVSS ... low polyreactivity

----------
test: yeast display, Sf9 membrane polyspecificity reagent, FACS + sequencing; frameworks hold sequencing errors
measured attribute: polyreactivity (PSR sort gate)

1. QVQLVESGGGLVQAGGSLRLSCAASGFTFPSNAMGWYRQAPGKERELVAAISSTDSTNYADSVKGRFTISRDNAKNTVYLQMNSLKPEDTAVFYCNADRDDDYDYWGQGTQVTVSS ... low polyreactivity
2. QVQLVESGGGLVQAGGSLRLICAASGSTFWWYAMGWYRKAPGKEREFVAAIRWSSGSTYYADSVKGRFTISRDNAKNTVYLQMNSLKPEDTAVYYCATDDTSNVYVDLDYWGQGTQVTVSS ... high polyreactivity
3. QVQLVESGGGLVQAGGSLRLSCAASGITSWYYAMGWYRQAPGKERELVAAITSDGRTNYADSVKGRFTISRDNAKNTVYLQMNSLKPEDTAVYYCAAARRVGVSHYRYGYWGQGTQVTVSS ... high polyreactivity
4. QVQLVESGGGLVQAGGSLRLSCAASGFIFYYYAMGWYRQAPGKERELVAAITGSGGNTYYADSVKGRFTISRDNEKNSVFFHMNSLKPEDTAVYYCNTGYDRGGDYWGQGTQVTVSS ... high polyreactivity
5. QVQLVESGGGLVQAGGSLRLSCAASGRTFYYYAMGWYRQAPGNERELVAAISRGGGTNYADSVKGRFTISRDNAKNTVYLQMNSLKPEDTAVYYCAAARIGPQRYDYWGHGTQVTVSS ... high polyreactivity
6. QVQLVDSGGGLVQAGGSLRLSCAASGSTFRLYAMGWYRQAPGKERALVAAITRGGITYYADSVKGRFTISRDNAKNTVYFQMNSLKPEDTAVYYCAATTFGPYALYPRYYYWGQGTQVTVSS ... high polyreactivity
7. QVQLVESGGGLVQAGGSLRLSCAASGLTFDNYAMGWYRQAPGKERELVAAISTSSGRTYYADSVKGRFTISRDNAKNTVYLQMNSLKPEDTAVYYCAAEVAFIYSYYEVYKYEYWGQGTQVTVSS ... high polyreactivity
8. QVQLAESGGGLVQAGGSLRLSCAASGIIFYFYAMGWYRQAPGKERELVAAISGTGGRTYYADSVKGRFTISRDNAKNTVYLQMNSLKPEDTAVYYCNADDTPVPSIRFDYWGQGTQVTVSS ... low polyreactivity
9. QVQLVESGGGLVQAGGSLRLSCAASGYTFTINAMGWYRQAPGKERELVAAISWNGGRTYYADAVKGRFTISRDNAKNTVYLQMNSLKPEDTAVCYCNADTYAAGDYWGQGTQVTVSS ... high polyreactivity
10. QVQLLETGGGLVQAGGSLRLSCAASGIPFDIYTMGWYIQAPGKERELVAASSYSGGTTYYADSVKGRFTISRDNAKNTVYLQMISLKPEDTAVYYCAAYEGTYFTEVDYWGQGTQVTVSS ... low polyreactivity
11. QVQLVESGGGLVQAGGSLRLSCAASGFTFRFYAMGWYRQAPGKERELVAAISRRGGTTYYADSVKGRFTISRDNAKNTVYLQMNSLKPEDTAVYYCNKDWTYEHGYWGQGTQVTVSS ... high polyreactivity

----------
experiment: yeast display, Sf9 membrane polyspecificity reagent, FACS + sequencing; frameworks hold sequencing errors
measured attribute: polyreactivity (PSR sort gate)

1) QVQLVESGGGLVQAGGSLRLSCAASGITFASYAMGWYRQAPGKERELVAAISTRSGGTYYADSVKGRFTISRDNAKNTVYLQMNSLKPEETAVYYCAAYNVIYTRRMYYWGQGTQVTVSS ... high polyreactivity
2) QVQLVESGGGLVQAGGSLRLSCAASGRIFHYYAMGWYRQAPGKERELVAAISNTDGSTYYADSVKGRFTISRDNAKYTVYLQMNSLKPEDTAVYYCAADSLGALYRGNYPYGYWGQGTQVNVSS ... high polyreactivity
3) QFQLLESGRGLVQAGGSLRLSCAASGRTYNVNAMGWYRKAPGKERELVASISSGTSTNYADSVKGRFTITRDNAKNTVYLQLNRLNREDTAVYYCNADFVWNGYSGRIRDYYWGQATQVTVSS ... low polyreactivity
4) QVQLVESGGGLVQAGGSLRLSCAASGRTTLLYAMGWYRQAPGKERELVATIRYTGGSTYADSVKGHFTISRDNAKNTVYLQMNILKPEDTAVYYCNARSYQYDGGHRYWGQGTQVTVSL ... high polyreactivity
5) QVQLVESGGGLVQAGGSLRLSCAASGRIFKYYAMGWYRQAPGKERELVAAITSSGVSTYADSVKGRFTISRDNAKNTVYLQMISLKPEDTAVYYCADDYVREGLGYDYWGQGTQVTVSS ... low polyreactivity
6) QVQLVESGGGLVQAGGSLRFSCAASGYIFSLNGRGWYRQAPGKERELVAAISSSGGRTYYADSVKGRFTISRDNAKNTVYLQMNSLKPEDTAVYYCAAEVYLSTYYQDMNYWGQGTQVTVSS ... high polyreactivity
7) QVQLVESGGGLVQAGGSLRLSCAASGFTFGYYAMGWYRQAPGKERELVAAIRSSGGSTYYADSVKGRFTISRDNAKNTVYLQMNSLKPEDTAVYYCAVLYGYRSSSRYGYDSWGQGTQVTVSS ... high polyreactivity
8) QVQLVESGGGLVQAGGSLRLSCAASGSTLSFNAMGWYRQAPGKERELVAGITYSGASTYYADSVKGRFTISRDNAKNTVYLQMNSLKPEDTAVYYCAADSPYQIYYYWGQGTQVTVSS ... low polyreactivity
9) QVQLVEAGGGLVQAGGSLRLSCASSGNTFYPYAMGWYRQAPGKERELVAVITSGTDTYYADSVKARFTISRDNAKNTVYLQMNSLKPEDTAVYYCAASLYWRYGYWGQGTQVTVSS ... high polyreactivity
10) QDQLVESGGGLVQAGGSLRLSCAASGRTFGEYAMGWYRQAPGKERELVAAISSTGSTYYADSVKGRFTISRDNAKNTVYLQMNSLKPEDTAVYDCAAEIVRYGDEYDYWGQGTQVTVSS ... low polyreactivity
11) QVQLVESGGGLVQAGGSLRLSCASSGSIFFANAIGWYRQAPGKERELVATISWRGGSTYYAYSVKGRFTISRDIAKNSVYLQKNSLKPEDTAVYYCAAGYYPYWGQGTQLTVSS ... low polyreactivity
